Origin of the recorded values: patent US20100267784A1

Tested System: ERβ (Homo sapiens)
Sequence (Q92731 whole entry): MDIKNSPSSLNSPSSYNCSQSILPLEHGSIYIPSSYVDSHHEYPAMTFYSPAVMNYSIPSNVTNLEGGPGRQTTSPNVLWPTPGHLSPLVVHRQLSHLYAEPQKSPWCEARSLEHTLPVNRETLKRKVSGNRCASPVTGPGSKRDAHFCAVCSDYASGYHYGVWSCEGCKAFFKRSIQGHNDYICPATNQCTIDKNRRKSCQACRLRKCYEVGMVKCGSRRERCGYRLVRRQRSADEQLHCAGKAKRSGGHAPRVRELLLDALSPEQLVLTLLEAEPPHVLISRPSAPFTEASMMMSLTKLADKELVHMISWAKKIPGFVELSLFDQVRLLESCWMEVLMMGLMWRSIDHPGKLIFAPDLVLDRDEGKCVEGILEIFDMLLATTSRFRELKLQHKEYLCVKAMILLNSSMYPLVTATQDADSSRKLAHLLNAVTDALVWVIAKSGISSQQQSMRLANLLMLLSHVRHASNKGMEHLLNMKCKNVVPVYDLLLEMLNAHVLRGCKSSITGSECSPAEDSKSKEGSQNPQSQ
Method Notes: ERβ reporter (luciferase) transactivation assay in transfected HEK293 cells
Assay type: cell-based
Parameters: expressed in transfected cells; host or cells: HEK293
Condition Label: sample concentration 10 μM, 24 hours, mean of at least three independent transfections
Observed Property: ERβ receptor activation relative to 10 nM E2 corresponding 100 (%)
# output: bare number, implied unit %

Ask | Quick one: ERβ receptor activation relative to 10 nM E2 corresponding 100 for c1ccc(CCCC2=NOC(Cc3ccccc3)C2)cc1 (single isomer, unassigned) [114b] ?
Reply | 5.1

Ask | Give its ERβ receptor activation relative to 10 nM E2 corresponding 100 value. Item: COc1ccccc1CC1CC(CCc2ccccc2)=NO1 (single isomer, unassigned) [64b]
Reply | 6.4

Ask | Would you mind telling me what ERβ receptor activation relative to 10 nM E2 corresponding 100 value was observed for Oc1ccc(CC2CC(CCCc3ccc(O)c(O)c3)=NO2)cc1 (single isomer, unassigned) [103b] ?
Reply | −0.7

* * *

Tested System: ERα (Homo sapiens, UniProt P03372)
Sequence (P03372 whole entry): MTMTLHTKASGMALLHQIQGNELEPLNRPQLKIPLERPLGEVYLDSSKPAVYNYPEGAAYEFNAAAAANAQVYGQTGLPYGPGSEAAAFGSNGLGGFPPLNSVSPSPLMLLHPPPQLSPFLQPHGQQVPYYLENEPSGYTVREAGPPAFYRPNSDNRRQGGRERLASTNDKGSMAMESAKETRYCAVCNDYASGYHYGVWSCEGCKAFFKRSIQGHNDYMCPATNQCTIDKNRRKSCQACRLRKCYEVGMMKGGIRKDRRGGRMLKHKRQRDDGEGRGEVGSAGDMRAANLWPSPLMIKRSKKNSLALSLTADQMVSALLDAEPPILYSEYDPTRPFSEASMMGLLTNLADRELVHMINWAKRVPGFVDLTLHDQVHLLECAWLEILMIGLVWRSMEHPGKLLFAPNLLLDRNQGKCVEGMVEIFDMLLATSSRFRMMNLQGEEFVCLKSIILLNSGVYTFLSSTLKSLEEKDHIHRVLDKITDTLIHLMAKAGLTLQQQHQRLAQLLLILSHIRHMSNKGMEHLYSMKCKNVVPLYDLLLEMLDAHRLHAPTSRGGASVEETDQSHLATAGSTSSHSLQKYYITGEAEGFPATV
Method Notes: ERα reporter (luciferase) transactivation assay in transfected HEK293 cells
Assay type: cell-based
Parameters: expressed in transfected cells; host or cells: HEK293
Condition Label: sample concentration 10 μM, 24 hours, mean of at least three independent transfections
Method: Determination of the Estrogen Activity of the Compounds: Cell Culture, Transfection and Reporter Assays All other reagents were of reagent grade from Sigma or Fluka. […] After 24 hours, the cells were washed, lysed and luciferase and β-galactosidase activities were determined from 20 μl of lysates with the Victor^2TM reader (PerkinElmer Wallac, Turku, Finland). […]
Observed Property: ERα receptor activation relative to 10 nM E2 corresponding 100 (%)
Write the number in % without appending the unit.

In the examples that follow, each entry is paired with its recorded ERα receptor activation relative to 10 nM E2 corresponding 100.
Ask | Give its ERα receptor activation relative to 10 nM E2 corresponding 100 value. Item: c1ccc(CCCC2=NOC(c3ccccc3)C2)cc1 (single isomer, unassigned) [113a]
Reply | 44.3

Ask | Any idea what ERα receptor activation relative to 10 nM E2 corresponding 100 was measured for c1ccc(CCC2=NOC(CCc3ccccc3)C2)cc1 (single isomer, unassigned) [116b, 3,5-Di-phenethyl-4,5-dihydroisoxazole] ?
Reply | 43.9

Ask | Would you mind telling me what ERα receptor activation relative to 10 nM E2 corresponding 100 value was observed for Oc1ccc(CCC2=NOC(CCc3ccccc3)C2)cc1 (single isomer, unassigned) [106a] ?
Reply | 62.8

Ask | Request the reported ERα receptor activation relative to 10 nM E2 corresponding 100 associated with Oc1ccc(CCCC2=NOC(Cc3ccc(O)cc3)C2)cc1 (single isomer, unassigned) [101a]
Reply | 14.4

Ask | Can you share its ERα receptor activation relative to 10 nM E2 corresponding 100? I mean this compound: CC1(c2ccccc2)CC(CCCc2ccc(O)cc2)=NO1 (single isomer, unassigned) [90b]
Reply | 86.5

Ask | What value of measured ERα receptor activation relative to 10 nM E2 corresponding 100 is listed for COc1ccc(C2=NOC(Cc3ccccc3)C2)cc1 (single isomer, unassigned) [12b] ?
Reply | 9.7

Ask | Endpoint output: ERα receptor activation relative to 10 nM E2 corresponding 100 of c1ccc(CCC2=NOC(Cc3ccccc3)C2)cc1 (single isomer, unassigned) [109b] . Value?
Reply | 38.2

Ask | # input compound: c1ccc(CC2CC(c3ccccc3)=NO2)cc1 (single isomer, unassigned) [107b, 5-Benzyl-3-phenyl-4,5-dihydroisoxazole] ; wanted: its ERα receptor activation relative to 10 nM E2 corresponding 100
Reply | 47.2

Ask | So what's the measured ERα receptor activation relative to 10 nM E2 corresponding 100 for this one? Oc1cccc(C2CC(Cc3ccccc3)=NO2)c1 (centres unmarked) [82ab]
Reply | 21.6

Ask | For the compound shown here, Oc1ccccc1CCC1=NOC(Cc2ccccc2)C1 (single isomer, unassigned) [91b] , give the reported ERα receptor activation relative to 10 nM E2 corresponding 100.
Reply | 39.7

Further cases:
Ask | Which ERα receptor activation relative to 10 nM E2 corresponding 100 is reported for this compound? c1ccc(CC2CC(c3ccccc3)=NO2)cc1 (single isomer, unassigned) [107a, 5-Benzyl-3-phenyl-4,5-dihydroisoxazole]
Reply | −1.0

Ask | # input compound: Oc1cccc(CCC2=NOC(CCc3ccccc3)C2)c1 (single isomer, unassigned) [105b] ; wanted: its ERα receptor activation relative to 10 nM E2 corresponding 100
Reply | 3.0

Ask | Report ERα receptor activation relative to 10 nM E2 corresponding 100 for Oc1ccccc1CCC1=NOC(Cc2ccc(F)cc2)C1 (single isomer, unassigned) [97b] please.
Reply | 11.1

Ask | Endpoint output: ERα receptor activation relative to 10 nM E2 corresponding 100 of Oc1cccc(CCC2=NOC(Cc3ccccc3)C2)c1 (single isomer, unassigned) [92b] . Value?
Reply | 15.7
